Listing: Viability (%) at different lipid concentrations, mean of selected compounds
Test system: HepG2 cell line
Test: In vitro toxicity study on HepG2 cell line (resazurin, viability and IC50)
Format: cell-based, human
Conditions: HepG2 cells, 12.5 μM lipid, 48 h post-treatment, resazurin, relative to ethanol vehicle controls
Method: The synthesized lipids were tested in term of in vitro transfection efficacy and toxicity on HeLa cells. In order to perform the mentioned biological tests, appropriate LNPs had to be formulated from the synthesized lipids. The formulation technique was different in Method A and B. The particle size, polydispersity index (PDI) and zeta potential of resulting LNPs were determined by means of Dynamic Light Scattering technique (DLS). […]
Express your answer in %, writing the number without its unit.

Reference set, count: 5
Compound	Target Entity	Units Label	Result
CCCCC/C=C\C/C=C\CCCCCCCCOC(CCCCCCC/C=C\C/C=C\CCCCC)O[Si](C)(C)OCCCCCCN1CCOCC1 (stereo not drawn)	HepG2 cell line	%	90.4
CCCCC/C=C\C/C=C\CCCCCCCCOC(CCCCCCCCCCCCCCC)O[Si](C)(C)OCCCCCCN(CCO)CCO (stereo not drawn)	HepG2 cell line	%	98.7
CCCCC/C=C\C/C=C\CCCCCCCCOC(CCCCCCC/C=C\C/C=C\CCCCC)O[Si](C)(C)OCCCCCCN(C)Cc1cn(C2[C@H](O)O[C@H](CO)[C@@H](O)[C@@H]2O)nn1 (stereo partly drawn)	HepG2 cell line	%	97.7
CCCCC/C=C\C/C=C\CCCCCCCCOC(CCCCCCC/C=C\C/C=C\CCCCC)O[Si](C)(C)OCCCCCCN1CCCCC1CO (stereo not drawn)	HepG2 cell line	%	98.7
CCCCC/C=C\C/C=C\CCCCCCCCOC(CCCCCCC/C=C\C/C=C\CCCCC)O[Si](C)(C)OCCCCCCN1CCN(CCO)CC1 (stereo not drawn)	HepG2 cell line	%	97.0

Query string: What does the data say about its Viability (%) at different lipid concentrations, mean? Entry: CCCCCCCC/C=C\CCCCCCCCOC(=O)C(C)(C)CC(OCCCCCCCC/C=C\CCCCCCCC)O[Si](C)(C)OCCCCCCN(C)CCCCO (stereo not drawn)
Result string: 98.8
